Molecular target: human TLR9 (Homo sapiens)
Construct: HA; host or cells: 293XL-hTLR9-HA (HEK293)
Sequence (Q9NR96 26-1032): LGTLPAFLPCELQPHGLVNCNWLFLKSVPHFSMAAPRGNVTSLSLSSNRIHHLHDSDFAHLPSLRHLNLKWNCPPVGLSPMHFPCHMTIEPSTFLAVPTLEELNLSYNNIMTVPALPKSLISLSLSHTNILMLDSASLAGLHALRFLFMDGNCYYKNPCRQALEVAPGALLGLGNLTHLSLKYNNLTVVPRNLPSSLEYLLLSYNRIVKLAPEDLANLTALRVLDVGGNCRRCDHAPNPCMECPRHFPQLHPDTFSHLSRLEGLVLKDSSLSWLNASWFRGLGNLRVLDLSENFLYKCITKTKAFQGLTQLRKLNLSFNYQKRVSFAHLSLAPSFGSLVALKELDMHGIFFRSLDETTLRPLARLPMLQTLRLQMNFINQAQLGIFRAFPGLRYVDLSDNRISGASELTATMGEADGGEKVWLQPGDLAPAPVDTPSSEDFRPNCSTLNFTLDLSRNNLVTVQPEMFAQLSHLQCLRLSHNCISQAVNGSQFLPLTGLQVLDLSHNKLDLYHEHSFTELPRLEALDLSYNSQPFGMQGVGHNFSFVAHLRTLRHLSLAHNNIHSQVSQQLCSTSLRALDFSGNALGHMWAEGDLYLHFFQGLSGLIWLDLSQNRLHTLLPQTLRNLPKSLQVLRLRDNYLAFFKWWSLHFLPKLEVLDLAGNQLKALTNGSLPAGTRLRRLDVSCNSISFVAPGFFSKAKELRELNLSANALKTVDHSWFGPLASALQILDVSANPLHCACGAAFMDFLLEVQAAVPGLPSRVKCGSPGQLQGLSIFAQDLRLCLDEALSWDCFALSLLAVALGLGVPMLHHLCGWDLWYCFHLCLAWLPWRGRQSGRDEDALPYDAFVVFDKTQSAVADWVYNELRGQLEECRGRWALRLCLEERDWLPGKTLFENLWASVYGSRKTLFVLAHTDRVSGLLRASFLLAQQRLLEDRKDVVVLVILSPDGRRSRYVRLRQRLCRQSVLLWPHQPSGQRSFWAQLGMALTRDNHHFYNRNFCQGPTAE
Test: HEK-TLR9 NF-κB-luciferase reporter, ODN2006 stimulation
Assay type: cell-based
Conditions: HEK-TLR9; 500 nM ASO 45 min, then 200 nM ODN2006 overnight; percentage of ODN2006 only
Method: In such examples, inhibition of TLR9 activity can be identified by observation of an overall decreased TLR9 response of the cell population, or a lower proportion of cells having TLR9-positive activity as compared to positive control condition in which cells are treated with TLR9 agonist in the absence of the oligonucleotide (or in the presence of an appropriate control inhibitory agent). […] TLR9 activity can then be determined by a luciferase assay. […]
In the oligonucleotide strings, read from the 5' end, every base follows the letter of its sugar. An asterisk marks phosphorothioate; unmarked linkages are phosphodiester. Other units and linkages are bracketed, terminal groups are in braces. A string of capitals states the bases alone. d = 2'-deoxy (DNA); m = 2'-O-methyl
ASSAY METRIC: TLR9-500 nM: averaged NF-κB-Luciferase relative to ODN2006 (%)
Numbers only, in %.

See these solved cases before continuing.
mG*mU*mC*mU*mC*C*A*T*G*T*C*C*C*A*G*mG*mC*mC*mU*mC (mG*mU*mC*mU*mC*dC*dA*dT*dG*dT*dC*dC*dC*dA*dG*mG*mC*mC*mU*mC) [[CDKN2B;AS1]2231] = 77.80
mA*mA*mG*mA*mU*T*A*T*C*T*T*C*T*T*T*mU*mA*mA*mU*mU (mA*mA*mG*mA*mU*dT*dA*dT*dC*dT*dT*dC*dT*dT*dT*mU*mA*mA*mU*mU) [[CDKN2B-AS1]2131] = 59.77
mA*mA*mA*mU*mG*T*C*C*T*G*G*C*C*C*T*mC*mA*mC*mU*mG (mA*mA*mA*mU*mG*dT*dC*dC*dT*dG*dG*dC*dC*dC*dT*mC*mA*mC*mU*mG) [[LINC-PINT]148.1] = 46.72
mA*mU*mA*mU*mC*T*G*C*T*G*C*C*C*A*C*mC*mU*mU*mC*mU (AUAUCTGCTGCCCACCUUCU; antisense; sugars from the 5' end m5 d10 m5, all phosphorothioate, methylation of C not given here) [[CDKN2B-AS1]831] = 73.46

Let us move to another entry and its TLR9-500 nM: averaged NF-κB-Luciferase relative to ODN2006.
The reported human TLR9 (Homo sapiens) TLR9-500 nM: averaged NF-κB-Luciferase relative to ODN2006 of mU*mA*mU*mU*mU*C*C*A*C*A*T*G*C*C*C*mA*mG*mU*mG*mU (mU*mA*mU*mU*mU*dC*dC*dA*dC*dA*dT*dG*dC*dC*dC*mA*mG*mU*mG*mU; antisense) [[CDKN2B-AS1]627] is 71.20
